Every entry's value here was drawn from PubChem BioAssay AID2305.

IC50 for assorted compounds
Test system: P. falciparum 3D7 growth, pLDH absorbance
Assay Method Text: blood-stage malaria parasite growth potency – strain 3D7, dose response (AID 2305)
API: value field is a number in nM; no unit string.

O=C(/C=C/c1ccc(Cl)c(Cl)c1)NCCCCCN1CC[C@H](c2c[nH]c3ccccc23)[C@H](O)C1 820
C#CCNC(=O)c1ccc(-c2ccnc(Nc3cccc(CCCN4CCOCC4)c3)n2)s1 1000
CN(C)c1cccc(-c2cnc3ccc(NCc4cccc(Cl)c4)nn23)c1 700
CCN1CCC(NCc2ccc(-c3ccc(Cl)s3)cc2)CC1 940
N=C(N)c1ccc(C=Cc2ccc(C(=N)N)cc2O)cc1 100
Cc1cccc2[nH]c(-c3cccc(-c4ccc(CNCc5cccc(N)c5)cc4)c3)nc12 260

Consider now this further compound.
q: Fill in: IC50 of O=C(Nc1ccc(OC2CCN(Cc3ccsc3)CC2)c(Cl)c1)c1ccc(F)cc1 is ___
a: 650

###

Tested on: P. falciparum 3D7 growth, pLDH absorbance
Assay Method Text: blood-stage malaria parasite growth potency – strain 3D7, dose response (AID 2305)
IC50 for assorted molecules
API: value field is a number in nM; no unit string.

Molecule	IC50, nM
CN(C)CCNC(=O)N1CCCN(c2ncnc3cc(-c4ccc(Cl)cc4)sc23)CC1	1020

q: Give IC50 (P. falciparum 3D7 growth, pLDH absorbance) of the following molecule: CCCCCCNC(=O)C1Cc2c([nH]c3cc(Cl)ccc23)C2(CCN(Cc3ccccc3)CC2)N1 (stereo not given)
a: 900

q: Ok, now COc1ccc(-c2ccc(NC(=O)c3cccc(Cl)c3)cc2)cc1CN(C)CCN(C)C
a: 780

q: Ok, now Clc1ccc2c(NCc3ccc4c(c3)OCO4)ccnc2c1
a: 270

q: Ok, now O=C(NCCCCN1CCC(c2c[nH]c3ccccc23)CC1)c1ccc(-c2ccc(C(F)(F)F)cc2)cc1
a: 800

q: Ok, now CC1CCCN(C(=O)C(C)Nc2cc(Cl)ccc2N2CCOCC2)C1 (stereo not given)
a: 320

###

pIC50 for assorted compounds
Test system: P. falciparum 3D7 growth, pLDH absorbance
Assay Method Text: blood-stage malaria parasite growth potency – strain 3D7, dose response (AID 2305)
To interpret pIC50, take it as minus log10 of a concentration measured in moles per litre.

Compound	pIC50
Clc1nc2ccccn2c1C=Cc1ccc2ccccc2n1	6.57

q: Fill in: pIC50 of COc1cccc(-c2ccc3ccnc(N)c3c2)c1 is ___
a: 6.39

q: Ok, now Cn1cc(C2CCN(CCCCNC(=O)c3ccc(-c4ccc(C(F)(F)F)cc4)c(CO)c3)CC2)c2ccccc21
a: 6.00

q: Ok, now CC1CCN(CC[C@H]2CCCN2S(=O)(=O)c2cccc(NC(=O)Nc3ccc(C(F)(F)F)cc3)c2)CC1
a: 6.14

q: Ok, now CCc1cn2c3c(cc(C(=O)N[C@@H](Cc4cccc(F)c4)[C@H](O)CNC4CCCCC4)cc13)N(C)S(=O)(=O)CC2
a: 7.52

q: Ok, now O=c1cc(NCCCNCc2cc(F)cc(C(F)(F)F)c2)[nH]c2ccccc12
a: 5.92

###

Tested on: P. falciparum 3D7 growth, pLDH absorbance
Assay Method Text: blood-stage malaria parasite growth potency – strain 3D7, dose response (AID 2305)
Observed Property: IC50

Examples with answers:
Cn1nc(-c2ccc(NC(=O)Nc3cc(C(F)(F)F)ccc3F)cc2)c2cnc(NCCc3cnc[nH]3)nc21 810 nM
CCOc1cc(C(=O)N[C@@H](Cc2ccccc2)[C@H](O)CNCc2cccc(OC)c2)cc(N2CCCCS2(=O)=O)c1 720 nM
Cc1cc2nc(-c3cccc(C(=O)NC4CCN(Cc5ccccc5)CC4)c3)[nH]c2cc1C 830 nM

Consider now this further compound.
q: Fill in: IC50 of CCc1ccc(NC(=O)c2cccc(CN3CCCN(Cc4ccc(OC)cc4)CC3)c2)cc1 is ___
a: 920 nM
